Please go through the items and note down their hERG current change (%, negative = inhibition) at 10uM.
Biological target: human ether-à-go-go-related gene (hERG) potassium channel (human)
Sequence (Q12809 whole entry, looked up): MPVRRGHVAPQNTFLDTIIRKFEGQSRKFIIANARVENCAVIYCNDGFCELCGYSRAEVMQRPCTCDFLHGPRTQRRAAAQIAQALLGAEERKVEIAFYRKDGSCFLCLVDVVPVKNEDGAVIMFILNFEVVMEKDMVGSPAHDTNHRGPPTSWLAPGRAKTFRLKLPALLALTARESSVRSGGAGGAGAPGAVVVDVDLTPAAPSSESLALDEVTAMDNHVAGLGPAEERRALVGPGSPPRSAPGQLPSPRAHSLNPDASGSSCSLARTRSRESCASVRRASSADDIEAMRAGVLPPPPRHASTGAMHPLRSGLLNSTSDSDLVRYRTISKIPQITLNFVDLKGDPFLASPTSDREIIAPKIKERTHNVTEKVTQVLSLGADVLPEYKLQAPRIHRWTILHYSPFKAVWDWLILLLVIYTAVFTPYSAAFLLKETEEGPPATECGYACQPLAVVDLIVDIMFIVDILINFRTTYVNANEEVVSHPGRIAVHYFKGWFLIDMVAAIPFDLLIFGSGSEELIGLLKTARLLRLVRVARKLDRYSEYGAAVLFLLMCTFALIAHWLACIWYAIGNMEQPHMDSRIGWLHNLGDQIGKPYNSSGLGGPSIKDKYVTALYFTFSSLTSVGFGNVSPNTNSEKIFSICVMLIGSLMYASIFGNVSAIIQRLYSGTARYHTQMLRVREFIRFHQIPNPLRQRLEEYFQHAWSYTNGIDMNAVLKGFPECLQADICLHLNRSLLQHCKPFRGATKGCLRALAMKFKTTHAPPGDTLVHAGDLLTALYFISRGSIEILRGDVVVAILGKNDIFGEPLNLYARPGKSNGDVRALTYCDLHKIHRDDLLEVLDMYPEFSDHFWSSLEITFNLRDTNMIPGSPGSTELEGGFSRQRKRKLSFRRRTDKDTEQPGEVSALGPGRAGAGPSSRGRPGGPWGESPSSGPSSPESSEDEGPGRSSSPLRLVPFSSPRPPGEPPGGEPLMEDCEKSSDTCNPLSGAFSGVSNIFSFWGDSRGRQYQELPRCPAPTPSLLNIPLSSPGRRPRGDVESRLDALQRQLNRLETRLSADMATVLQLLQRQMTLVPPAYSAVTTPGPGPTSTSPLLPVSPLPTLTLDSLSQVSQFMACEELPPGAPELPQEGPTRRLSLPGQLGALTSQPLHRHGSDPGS
Test: primary screen, population patch clamp on CHO cells stably expressing hERG; higher = less effect of the substance
Method: Briefly, Chinese hamster ovary (CHO) cells stably expressing the hERG channel were dislodged from tissue culture flasks and dispensed into PPC plates. […] During the recording, background leak currents were estimated by a 100 ms step to -80 mV from an initial holding potential of -70 mV and subtracted from the subsequent current measurement. The campaign was conducted in two phases using slight differences in recording protocol. […]
Among all 310,000 compounds or so, about 14,000 (4.5%) showed an effect of 50% or more. The effect is printed as a negative number. The sample holds strong results, similar compounds and a random draw of the others, so the mix is not that of the screen.
Supply the numeric figure in %, leaving out any unit text.

// output hERG current change (%, negative = inhibition) at 10uM; input COc1ccc(Cn2nnnc2C(c2ccc(F)cc2)N2CCN(C3CCCC3)CC2)cc1 (centres unmarked) ; system human ether-à-go-go-related gene (hERG) potassium channel (human)
-52.6

State the measured hERG current change (%, negative = inhibition) at 10uM (human ether-à-go-go-related gene (hERG) potassium channel (human)) of CC1CN(CCCSc2ccc(Cl)cc2)CC(C)O1.O=C(O)C(=O)O (centres unmarked)
-47.9

Provide hERG current change (%, negative = inhibition) at 10uM, system human ether-à-go-go-related gene (hERG) potassium channel (human), entry COCCn1c(SCC(=O)NC2CCCC2)nc2cccnc21
17.1

Give hERG current change (%, negative = inhibition) at 10uM; test system human ether-à-go-go-related gene (hERG) potassium channel (human); compound CC(C)CNS(=O)(=O)c1ccc(CCC(=O)N2CCCC2)cc1
24.4

Quote human ether-à-go-go-related gene (hERG) potassium channel (human) hERG current change (%, negative = inhibition) at 10uM for entry CCN1CCC2(CCN(C(=O)c3cc(COc4cc(C)ccc4C)on3)C2)C1 (centres unmarked) .
-54.8

Fill in: hERG current change (%, negative = inhibition) at 10uM on human ether-à-go-go-related gene (hERG) potassium channel (human), entry OCC1CO1 (centres unmarked)
15.8

Report value only: hERG current change (%, negative = inhibition) at 10uM, human ether-à-go-go-related gene (hERG) potassium channel (human), Cc1cc(N)ccc1N=Nc1c(C)n(C)n(-c2ccccc2)c1=O
-5.57

Identify measured hERG current change (%, negative = inhibition) at 10uM obtained with human ether-à-go-go-related gene (hERG) potassium channel (human) for Cc1nc2cc(NC(=O)NCc3ccco3)ccc2o1 .
9.7

// output hERG current change (%, negative = inhibition) at 10uM; input COc1ccc(S(=O)(=O)NCC2CCCN(C(=O)CCSC)C2)cc1 (centres unmarked) ; system human ether-à-go-go-related gene (hERG) potassium channel (human)
18

# lookup: human ether-à-go-go-related gene (hERG) potassium channel (human) hERG current change (%, negative = inhibition) at 10uM, key = Cl.O=C(CCN1CCCC1)Nc1ccc(Br)cc1
-15.7

For human ether-à-go-go-related gene (hERG) potassium channel (human), give the measured hERG current change (%, negative = inhibition) at 10uM of the entry CC1CN(CCOCCSc2ccc(Cl)cc2)CC(C)O1.O=C(O)C(=O)O (centres unmarked)
-23.3

Lab note: record hERG current change (%, negative = inhibition) at 10uM of COc1ccc(C(c2nnnn2Cc2ccc(F)cc2)N2CCN(c3ccc(OC)cc3)CC2)cc1 (centres unmarked) tested on human ether-à-go-go-related gene (hERG) potassium channel (human).
-7.57

Provide hERG current change (%, negative = inhibition) at 10uM, recorded with human ether-à-go-go-related gene (hERG) potassium channel (human), of COCCN1CCN(C(=O)c2cc(COc3cc(C)ccc3C)on2)CC1
1.06

Fetch value of hERG current change (%, negative = inhibition) at 10uM on human ether-à-go-go-related gene (hERG) potassium channel (human) for Cc1ccc(C)c(OCc2cc(C(=O)N3CCN(C(=O)c4ccco4)CC3)no2)c1 .
-10.7

Give hERG current change (%, negative = inhibition) at 10uM for CCc1ccc(C(=O)NC(CC(C)C)C(=O)O)cc1 (centres unmarked) tested on human ether-à-go-go-related gene (hERG) potassium channel (human).
-2.4

For human ether-à-go-go-related gene (hERG) potassium channel (human), give hERG current change (%, negative = inhibition) at 10uM of the listed compound: CCN1CCN(C(c2ccccc2)c2nnnn2Cc2ccc(OC)cc2)CC1.Cl (centres unmarked)
10.7

Specify hERG current change (%, negative = inhibition) at 10uM for CC1CCCN(CCC(=O)c2ccc(Br)cc2)C1.Cl (centres unmarked) , system human ether-à-go-go-related gene (hERG) potassium channel (human).
-64.4

Answer briefly: hERG current change (%, negative = inhibition) at 10uM recorded on human ether-à-go-go-related gene (hERG) potassium channel (human) for O=C(N/C(=C/C=C\c1ccccc1)C(=O)N1CCOCC1)c1ccc(Br)cc1
-64.1

Give human ether-à-go-go-related gene (hERG) potassium channel (human) hERG current change (%, negative = inhibition) at 10uM for the following compound: CCn1cc(C(=O)NCc2ccncc2)c(=O)c2cc(F)c(N3CCN(C(=O)c4ccco4)CC3)cc21
-66.4

Lab note: record hERG current change (%, negative = inhibition) at 10uM of Cc1nnc2ccc(-c3cccc(C(F)(F)F)c3)nn12 tested on human ether-à-go-go-related gene (hERG) potassium channel (human).
-9.04

Jot down hERG current change (%, negative = inhibition) at 10uM (human ether-à-go-go-related gene (hERG) potassium channel (human)) of COc1ccccc1C(c1nnnn1Cc1ccccc1)N1CCN(C2CCCC2)CC1.Cl (centres unmarked) .
-35.5

Provide the reported hERG current change (%, negative = inhibition) at 10uM (system: human ether-à-go-go-related gene (hERG) potassium channel (human)) for Cc1cccc(NC(=O)CCN2CCCC(C)C2)c1.Cl (centres unmarked)
1.45

Please respond with reported hERG current change (%, negative = inhibition) at 10uM (system human ether-à-go-go-related gene (hERG) potassium channel (human)) for CCCNS(=O)(=O)c1ccc(CCC(=O)N2CCN(c3ccc(F)cc3)CC2)cc1 .
-43.7

Write down measured hERG current change (%, negative = inhibition) at 10uM (human ether-à-go-go-related gene (hERG) potassium channel (human)) for this compound. c1ccc(Cn2nnnc2C(c2cccnc2)N2CCN(C3CCCCC3)CC2)cc1 (centres unmarked)
-24.9

Identify measured hERG current change (%, negative = inhibition) at 10uM obtained with human ether-à-go-go-related gene (hERG) potassium channel (human) for O=C(N/C(=C/C=C/c1ccccc1)C(=O)N1CCOCC1)c1ccccc1Cl .
-16.6

// fetch hERG current change (%, negative = inhibition) at 10uM for CC1CCCN(CCC(=O)Nc2ccc(Br)cc2)C1.Cl (centres unmarked) ; system: human ether-à-go-go-related gene (hERG) potassium channel (human);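 further: peak tail current of the secondary pulse compared with the same well before compound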
-57.6

With human ether-à-go-go-related gene (hERG) potassium channel (human) as the test system, provide measured hERG current change (%, negative = inhibition) at 10uM for this compound: COc1ccc(OC)c(C(c2nnnn2Cc2ccccc2)N2CCN(C)CC2)c1.Cl (centres unmarked)
3.17

Look up and report measured hERG current change (%, negative = inhibition) at 10uM (human ether-à-go-go-related gene (hERG) potassium channel (human)) for the following compound: COc1ccc(NC(=O)CCN2CCCC(C)C2)cc1 (centres unmarked)
-23.2

Give hERG current change (%, negative = inhibition) at 10uM only, for CC1CN(CCCCSc2ccccc2)CC(C)O1.Cl (centres unmarked) , using human ether-à-go-go-related gene (hERG) potassium channel (human) data.
-8.71

Answer with hERG current change (%, negative = inhibition) at 10uM of Cc1nnc2ccc(N3CCN(c4cccc(C(F)(F)F)c4)CC3)nn12 measured for human ether-à-go-go-related gene (hERG) potassium channel (human).
-61.8

Please report hERG current change (%, negative = inhibition) at 10uM with human ether-à-go-go-related gene (hERG) potassium channel (human) for item O=C(NC1CCOC1)c1cc(COc2cccc(C(F)(F)F)c2)on1 (centres unmarked) .
2.06

Lab note: human ether-à-go-go-related gene (hERG) potassium channel (human) assay, enter hERG current change (%, negative = inhibition) at 10uM for O=C(N/C(=C/c1ccccc1)C(=O)N1CCCCC1)c1ccccc1 here
29.9

Under human ether-à-go-go-related gene (hERG) potassium channel (human), report hERG current change (%, negative = inhibition) at 10uM for CC1CC(C)CN(CCOCCSc2ccc(Cl)cc2)C1.O=C(O)C(=O)O (centres unmarked)
-72.4

// fetch hERG current change (%, negative = inhibition) at 10uM for CS(=O)(=O)N(Cc1ccc(C(=O)NN=C2CCCC2)cc1)c1ccccc1 ; system: human ether-à-go-go-related gene (hERG) potassium channel (human);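 further: peak tail current of the secondary pulse compared with the same well before compound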
8.63

// fetch hERG current change (%, negative = inhibition) at 10uM; item: CCCCOc1ccc(C(=O)N/C(=C/C=C/c2ccccc2)C(=O)N2CCOCC2)cc1 ; system: human ether-à-go-go-related gene (hERG) potassium channel (human);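 further: peak tail current of the secondary pulse compared with the same well before compound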
-5.66

State hERG current change (%, negative = inhibition) at 10uM on human ether-à-go-go-related gene (hERG) potassium channel (human). Entry: COc1ccc(Cn2nnnc2C(c2ccc3ncccc3c2)N2CCN(C3CCCCC3)CC2)cc1 (centres unmarked)
-82.8

Give hERG current change (%, negative = inhibition) at 10uM only, for COc1ccc(C(c2nnnn2Cc2ccccc2)N2CCN(c3ccccc3)CC2)cc1.Cl (centres unmarked) , using human ether-à-go-go-related gene (hERG) potassium channel (human) data.
-6.94

Enter recorded hERG current change (%, negative = inhibition) at 10uM with human ether-à-go-go-related gene (hERG) potassium channel (human) for S=C(NCCN1CCOCC1)Nc1ccc(Cl)cc1 here.
5.48

Would you please give the reported hERG current change (%, negative = inhibition) at 10uM of COc1ccc(OC)c(C(c2nnnn2Cc2ccccc2)N2CCN(C3CCCCC3)CC2)c1.Cl (centres unmarked) with human ether-à-go-go-related gene (hERG) potassium channel (human)?
-53.9

Retrieve hERG current change (%, negative = inhibition) at 10uM on human ether-à-go-go-related gene (hERG) potassium channel (human); query FC(F)(F)c1cccc(N2CCN(c3ccc4nnc(-c5ccccc5)n4n3)CC2)c1
-4.4

Give hERG current change (%, negative = inhibition) at 10uM for Cc1ccc(C)c(OCc2cc(C(=O)N3CCN(c4ccccc4)CC3)no2)c1 tested on human ether-à-go-go-related gene (hERG) potassium channel (human).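 Further: peak tail current of the secondary pulse compared with the same well before compound.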
-31.4

From: paper PMC4336329
